tested on: Escherichia coli TOP10; experiment: shrunken log2 fold change of peptide-encoding DNA abundance (4.5 h post-induction vs induction); higher = less antimicrobial activity (less host growth inhibition); details: time post-induction: 4.5 h; library: site-saturation at positions 5, 18, 19, 20;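 note: peptides expressed intracellularly from a pBAD plasmid library in pooled LB shake-flask culture, induced with 0.3% L-arabinose, DNA abundance read by NGS, three biological replicates, DESeq2 with apeglm shrinkage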
READOUT KIND: shrunken log2 fold change

[[record]]
residue_sequence = "RRIRSRPPRLPRPRPRPSSSPRP"
reading = -0.353

[[record]]
residue_sequence = "RRIRLRPPRLPRPRPRPMRKPRP"
reading = 0.651

[[record]]
residue_sequence = "RRIRERPPRLPRPRPRPPYRPRP"
reading = 0.0947

[[record]]
residue_sequence = "RRIRLRPPRLPRPRPRPKKWPRP"
reading = 0.11

[[record]]
residue_sequence = "RRIRTRPPRLPRPRPRPYIIPRP"
reading = -0.59

[[record]]
residue_sequence = "RRIRGRPPRLPRPRPRPFPMPRP"
reading = 0.533

[[record]]
residue_sequence = "RRIRVRPPRLPRPRPRPSQLPRP"
reading = -0.234

[[record]]
residue_sequence = "RRIRGRPPRLPRPRPRPSQVPRP"
reading = 0.235

